- System: EKVX
- RUN DESCRIPTION: NCI tumour cell line growth inhibition, 48 h
The source made the active and inactive calls. Rule as the data show it: active = GI50 up to about 1.1 µM and inactive = higher.
Documented GI50 across a set of molecules

[[record]]
molecule = "Nc1nc(NCC2(CO)CC(CCc3ccccc3)C2)cc(=O)[nH]1 (stereo not drawn)"
experimental_readout = "GI50"
measured_result = "> 100 µM (inactive)"

[[record]]
molecule = "N#CCC(=O)N/N=C1/C(=O)N(c2cc(Cl)ccc2Cl)C(=O)C(=O)C1c1nc2ccccc2s1 (stereo not drawn)"
experimental_readout = "GI50"
measured_result = "43.4 µM (inactive)"


Now look at this entry.
Find the recorded GI50 belonging to c1ccc(C(c2cccc3c2ccc2ccccc23)C(c2ccccc2)c2cccc3c2ccc2ccccc23)cc1 (stereo not drawn) and report it.
> 100 µM (inactive)
